pIC50: −log10 of the molar value.
These molecules were tested on PIM3 (Homo sapiens, UniProt Q86V86); pIC50 is the recorded read-out.

CC(C)(C)OC(=O)Nc1ncsc1C#CCN1C(=O)c2ccccc2C1=O
< 6.00
Nc1ncsc1C#Cc1cnc2[nH]ccc2c1
4.00 to 5.00
CC(C)(C)OC(=O)Nc1nc(-c2ccncc2)sc1C#CCN1CCOCC1
< 6.00
Nc1ncsc1C#Cc1cccc(O)c1
5.00 to 6.00

Now look at this one.
Ask: Item: c1ccc(Cc2c[nH]c3ncsc23)cc1 [Compound A7, 6-benzyl-4H-pyrrolo[2,3-d]thiazole] Test system: PIM3 (Homo sapiens, UniProt Q86V86) Read-out: pIC50 Value: ?
Reply: 5.00 to 6.00

###

These compounds were tested on UniProtKB P29317; IC50 is the recorded read-out.
Sequence (P29317 24-976, species assumed): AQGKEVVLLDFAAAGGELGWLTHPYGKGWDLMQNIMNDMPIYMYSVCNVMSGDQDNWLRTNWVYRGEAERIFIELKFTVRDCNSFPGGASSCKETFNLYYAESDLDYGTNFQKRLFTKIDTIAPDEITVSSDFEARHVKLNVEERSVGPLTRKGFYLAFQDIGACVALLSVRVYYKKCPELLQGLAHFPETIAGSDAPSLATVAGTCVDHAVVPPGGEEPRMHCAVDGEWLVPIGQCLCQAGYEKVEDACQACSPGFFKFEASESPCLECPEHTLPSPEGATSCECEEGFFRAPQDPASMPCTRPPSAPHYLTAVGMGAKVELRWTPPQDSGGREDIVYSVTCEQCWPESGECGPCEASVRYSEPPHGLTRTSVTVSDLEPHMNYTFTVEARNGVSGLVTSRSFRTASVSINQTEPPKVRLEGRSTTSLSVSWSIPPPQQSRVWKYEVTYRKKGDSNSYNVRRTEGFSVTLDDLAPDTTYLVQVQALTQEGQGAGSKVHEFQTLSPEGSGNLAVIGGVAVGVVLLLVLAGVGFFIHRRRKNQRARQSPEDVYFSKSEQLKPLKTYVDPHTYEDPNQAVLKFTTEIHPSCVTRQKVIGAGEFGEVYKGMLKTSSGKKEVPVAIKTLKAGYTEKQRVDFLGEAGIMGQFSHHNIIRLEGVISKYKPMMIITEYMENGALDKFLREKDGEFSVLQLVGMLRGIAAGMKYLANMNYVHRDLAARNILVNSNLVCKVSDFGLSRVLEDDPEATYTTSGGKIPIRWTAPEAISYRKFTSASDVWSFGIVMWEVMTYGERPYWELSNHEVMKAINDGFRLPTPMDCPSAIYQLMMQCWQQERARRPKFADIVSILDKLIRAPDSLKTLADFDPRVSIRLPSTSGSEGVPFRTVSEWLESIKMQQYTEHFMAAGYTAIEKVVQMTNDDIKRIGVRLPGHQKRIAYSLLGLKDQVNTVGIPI

Nc1ncsc1C#Cc1cccc(O)c1
> 1000 nM
c1ccc(Cc2c[nH]c3ncsc23)cc1 [Compound A7, 6-benzyl-4H-pyrrolo[2,3-d]thiazole]
10000 to 100000 nM
CC(C)(C)OC(=O)Nc1ncsc1C#CCN1C(=O)c2ccccc2C1=O
> 1000 nM

Ask: Item: Nc1ncsc1C#Cc1cnc2[nH]ccc2c1 Test system: UniProtKB P29317 Read-out: IC50 Value: ?
Reply: > 1000 nM

Ask: Item: CC(C)(C)OC(=O)Nc1nc(-c2ccncc2)sc1C#CCN1CCOCC1 Test system: UniProtKB P29317 Read-out: IC50 Value: ?
Reply: > 1000 nM

###

target: RPS6KA1 (Homo sapiens, UniProt Q15418); construct: purchased; experiment: filter binding kinase assay; assay type: biochemical; conditions: derived from % inhibition at 1 μM
Sequence (Q15418 whole entry, species assumed): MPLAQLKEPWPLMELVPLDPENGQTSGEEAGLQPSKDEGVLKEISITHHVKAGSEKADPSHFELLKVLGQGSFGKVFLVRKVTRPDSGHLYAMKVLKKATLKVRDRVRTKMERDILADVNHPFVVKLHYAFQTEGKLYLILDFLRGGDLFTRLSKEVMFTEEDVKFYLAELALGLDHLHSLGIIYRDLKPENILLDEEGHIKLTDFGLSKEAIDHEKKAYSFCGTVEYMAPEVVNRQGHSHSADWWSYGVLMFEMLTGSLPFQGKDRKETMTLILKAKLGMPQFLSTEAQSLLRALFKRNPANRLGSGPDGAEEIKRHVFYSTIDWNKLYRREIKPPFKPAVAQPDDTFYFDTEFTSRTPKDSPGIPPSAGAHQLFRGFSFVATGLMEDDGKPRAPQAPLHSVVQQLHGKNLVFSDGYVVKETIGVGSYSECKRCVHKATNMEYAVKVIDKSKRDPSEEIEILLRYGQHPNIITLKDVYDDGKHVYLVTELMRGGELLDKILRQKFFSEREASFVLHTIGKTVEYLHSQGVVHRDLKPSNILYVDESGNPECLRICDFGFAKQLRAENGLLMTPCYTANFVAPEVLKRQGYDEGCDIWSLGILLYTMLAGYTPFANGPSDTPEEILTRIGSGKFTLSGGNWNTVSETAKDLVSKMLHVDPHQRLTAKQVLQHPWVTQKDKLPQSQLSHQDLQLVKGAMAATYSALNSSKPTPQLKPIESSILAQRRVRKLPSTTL
# IC50 annotations

Worked examples, 4 molecules total:
Nc1ncsc1C#Cc1cccc(O)c1 [Compound A27, 3-(4-aminothiazol-5-ylethynyl)phenol]
> 1 µM
CC(C)(C)OC(=O)Nc1ncsc1C#CCN1C(=O)c2ccccc2C1=O [Compound A26]
> 1 µM
CC(C)(C)OC(=O)Nc1nc(-c2ccncc2)sc1C#CCN1CCOCC1 [Compound A25]
10 to 100 µM
c1ccc(Cc2c[nH]c3ncsc23)cc1 [Compound A7, 6-benzyl-4H-pyrrolo[2,3-d]thiazole]
10 to 100 µM

Now look at this one.
Ask: Suppose we examine the molecule Nc1ncsc1C#Cc1cnc2[nH]ccc2c1 [Compound A22] ; what IC50 value has been reported?
Reply: > 1 µM

###

target: MYLK (Homo sapiens, UniProt Q15746); construct: purchased; assay: filter binding kinase assay; assay type: biochemical; conditions: derived from % inhibition at 1 μM
measurement.type: IC50

Worked examples, 3 compounds total:
Nc1ncsc1C#Cc1cnc2[nH]ccc2c1
> 1 µM
CC(C)(C)OC(=O)Nc1nc(-c2ccncc2)sc1C#CCN1CCOCC1
> 1 µM
CC(C)(C)OC(=O)Nc1ncsc1C#CCN1C(=O)c2ccccc2C1=O
> 1 µM

Ask: Item: Nc1ncsc1C#Cc1cccc(O)c1 Test system: MYLK (Homo sapiens, UniProt Q15746) Read-out: IC50 Value: ?
Reply: 1 to 10 µM

Ask: Item: c1ccc(Cc2c[nH]c3ncsc23)cc1 [Compound A7, 6-benzyl-4H-pyrrolo[2,3-d]thiazole] Test system: MYLK (Homo sapiens, UniProt Q15746) Read-out: IC50 Value: ?
Reply: > 1 µM

###

molecular target: INSRR (Homo sapiens); construct: purchased; experiment: filter binding kinase assay; assay type: biochemical; settings: derived from % inhibition at 1 μM
Sequence (P14616 27-1297, species assumed): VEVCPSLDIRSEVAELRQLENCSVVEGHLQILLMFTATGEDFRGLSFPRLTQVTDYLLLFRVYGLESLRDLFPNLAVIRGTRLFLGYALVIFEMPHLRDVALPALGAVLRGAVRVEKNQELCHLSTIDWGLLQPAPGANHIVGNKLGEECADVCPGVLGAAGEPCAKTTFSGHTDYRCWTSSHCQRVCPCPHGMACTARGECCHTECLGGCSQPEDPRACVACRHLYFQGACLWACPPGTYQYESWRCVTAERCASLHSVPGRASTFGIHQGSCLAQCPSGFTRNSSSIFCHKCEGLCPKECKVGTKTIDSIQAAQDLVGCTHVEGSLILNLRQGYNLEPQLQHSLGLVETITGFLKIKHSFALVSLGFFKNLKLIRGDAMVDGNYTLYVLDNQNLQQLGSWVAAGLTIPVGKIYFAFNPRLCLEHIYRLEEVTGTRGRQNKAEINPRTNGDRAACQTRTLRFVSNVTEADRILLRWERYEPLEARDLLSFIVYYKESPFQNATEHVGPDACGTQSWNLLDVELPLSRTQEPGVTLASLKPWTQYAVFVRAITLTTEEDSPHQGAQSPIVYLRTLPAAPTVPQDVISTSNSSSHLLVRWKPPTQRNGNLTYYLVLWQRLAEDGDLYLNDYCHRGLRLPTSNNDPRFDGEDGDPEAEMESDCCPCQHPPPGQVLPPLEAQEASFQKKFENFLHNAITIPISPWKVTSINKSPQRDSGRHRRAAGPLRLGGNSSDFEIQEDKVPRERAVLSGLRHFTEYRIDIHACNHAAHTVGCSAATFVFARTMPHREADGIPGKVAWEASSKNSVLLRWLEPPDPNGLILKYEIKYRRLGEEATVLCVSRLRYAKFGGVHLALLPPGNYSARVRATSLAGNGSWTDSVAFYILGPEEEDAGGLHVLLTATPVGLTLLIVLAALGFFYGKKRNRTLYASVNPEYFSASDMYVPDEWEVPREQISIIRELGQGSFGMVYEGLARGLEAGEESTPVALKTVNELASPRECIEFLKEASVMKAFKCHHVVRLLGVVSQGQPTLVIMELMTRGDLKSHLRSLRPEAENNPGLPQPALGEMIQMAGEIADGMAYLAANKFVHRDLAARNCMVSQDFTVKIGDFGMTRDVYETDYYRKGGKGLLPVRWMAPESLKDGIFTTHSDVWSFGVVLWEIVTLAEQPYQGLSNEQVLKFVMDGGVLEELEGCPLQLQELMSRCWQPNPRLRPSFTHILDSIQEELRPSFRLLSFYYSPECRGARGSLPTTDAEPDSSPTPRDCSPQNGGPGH
# IC50 annotations

Worked examples, 3 compounds total:
Nc1ncsc1C#Cc1cccc(O)c1
> 1 µM
CC(C)(C)OC(=O)Nc1nc(-c2ccncc2)sc1C#CCN1CCOCC1
> 1 µM
c1ccc(Cc2c[nH]c3ncsc23)cc1 [Compound A7, 6-benzyl-4H-pyrrolo[2,3-d]thiazole]
> 1 µM

Ask: Suppose we examine the compound CC(C)(C)OC(=O)Nc1ncsc1C#CCN1C(=O)c2ccccc2C1=O ; what IC50 value has been reported?
Reply: 1 to 10 µM

Ask: Suppose we examine the compound Nc1ncsc1C#Cc1cnc2[nH]ccc2c1 ; what IC50 value has been reported?
Reply: 1 to 10 µM

###

Target: BRSK1 (Homo sapiens)
Sequence (Q8TDC3 1-778): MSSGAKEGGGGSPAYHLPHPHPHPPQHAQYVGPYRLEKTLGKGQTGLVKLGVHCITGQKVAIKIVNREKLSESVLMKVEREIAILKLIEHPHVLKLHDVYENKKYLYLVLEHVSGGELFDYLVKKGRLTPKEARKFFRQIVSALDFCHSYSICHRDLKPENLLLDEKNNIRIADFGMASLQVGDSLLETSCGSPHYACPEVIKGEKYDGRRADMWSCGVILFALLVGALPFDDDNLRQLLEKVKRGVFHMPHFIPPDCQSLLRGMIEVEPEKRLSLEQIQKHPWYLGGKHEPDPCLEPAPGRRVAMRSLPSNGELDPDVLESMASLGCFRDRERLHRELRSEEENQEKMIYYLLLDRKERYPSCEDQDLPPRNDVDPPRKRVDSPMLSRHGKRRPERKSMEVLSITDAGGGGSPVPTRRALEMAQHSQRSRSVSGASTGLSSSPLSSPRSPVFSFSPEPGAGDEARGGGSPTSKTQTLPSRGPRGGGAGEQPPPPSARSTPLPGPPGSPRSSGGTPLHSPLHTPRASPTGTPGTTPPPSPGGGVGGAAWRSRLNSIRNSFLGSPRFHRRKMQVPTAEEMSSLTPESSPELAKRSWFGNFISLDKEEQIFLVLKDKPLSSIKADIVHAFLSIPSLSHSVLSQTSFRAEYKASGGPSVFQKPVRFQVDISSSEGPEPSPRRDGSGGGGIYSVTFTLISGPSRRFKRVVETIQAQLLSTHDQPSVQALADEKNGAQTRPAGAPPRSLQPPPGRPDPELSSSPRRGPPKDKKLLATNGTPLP
pIC50: −log10 of the molar value.
# pIC50 annotations

Worked examples, 4 compounds total:
c1ccc(Cc2c[nH]c3ncsc23)cc1 [Compound A7, 6-benzyl-4H-pyrrolo[2,3-d]thiazole]
5.00 to 6.00
CC(C)(C)OC(=O)Nc1nc(-c2ccncc2)sc1C#CCN1CCOCC1
< 6.00
Nc1ncsc1C#Cc1cccc(O)c1
5.00 to 6.00
Nc1ncsc1C#Cc1cnc2[nH]ccc2c1
5.00 to 6.00

Now look at this one.
Ask: Suppose we examine the compound CC(C)(C)OC(=O)Nc1ncsc1C#CCN1C(=O)c2ccccc2C1=O ; what pIC50 value has been reported?
Reply: < 6.00

###

target: RIPK2 (Homo sapiens, UniProt O43353)
Sequence (O43353 whole entry, species assumed): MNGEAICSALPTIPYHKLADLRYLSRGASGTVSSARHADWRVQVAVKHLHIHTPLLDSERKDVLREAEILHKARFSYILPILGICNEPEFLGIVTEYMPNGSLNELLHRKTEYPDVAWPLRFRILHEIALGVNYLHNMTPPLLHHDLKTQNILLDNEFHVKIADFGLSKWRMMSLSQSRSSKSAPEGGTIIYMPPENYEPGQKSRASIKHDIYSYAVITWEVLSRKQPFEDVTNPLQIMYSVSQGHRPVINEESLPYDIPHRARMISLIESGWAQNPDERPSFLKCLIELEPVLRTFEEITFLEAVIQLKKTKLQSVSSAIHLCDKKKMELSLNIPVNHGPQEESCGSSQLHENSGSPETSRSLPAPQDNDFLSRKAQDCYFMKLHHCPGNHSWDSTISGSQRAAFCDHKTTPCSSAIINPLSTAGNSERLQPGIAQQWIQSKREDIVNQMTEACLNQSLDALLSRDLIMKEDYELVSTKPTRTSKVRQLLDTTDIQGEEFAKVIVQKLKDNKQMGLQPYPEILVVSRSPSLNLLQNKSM
# IC50 annotations

Worked examples, 4 compounds total:
CC(C)(C)OC(=O)Nc1nc(-c2ccncc2)sc1C#CCN1CCOCC1
> 1 µM
c1ccc(Cc2c[nH]c3ncsc23)cc1 [Compound A7, 6-benzyl-4H-pyrrolo[2,3-d]thiazole]
10 to 100 µM
Nc1ncsc1C#Cc1cccc(O)c1
1 to 10 µM
CC(C)(C)OC(=O)Nc1ncsc1C#CCN1C(=O)c2ccccc2C1=O
10 to 100 µM

Now look at this one.
Ask: Suppose we examine the compound Nc1ncsc1C#Cc1cnc2[nH]ccc2c1 ; what IC50 value has been reported?
Reply: 1 to 10 µM

###

These compounds were tested on UniProtKB P51812; IC50 is the recorded read-out.
Sequence (P51812 whole entry, species assumed): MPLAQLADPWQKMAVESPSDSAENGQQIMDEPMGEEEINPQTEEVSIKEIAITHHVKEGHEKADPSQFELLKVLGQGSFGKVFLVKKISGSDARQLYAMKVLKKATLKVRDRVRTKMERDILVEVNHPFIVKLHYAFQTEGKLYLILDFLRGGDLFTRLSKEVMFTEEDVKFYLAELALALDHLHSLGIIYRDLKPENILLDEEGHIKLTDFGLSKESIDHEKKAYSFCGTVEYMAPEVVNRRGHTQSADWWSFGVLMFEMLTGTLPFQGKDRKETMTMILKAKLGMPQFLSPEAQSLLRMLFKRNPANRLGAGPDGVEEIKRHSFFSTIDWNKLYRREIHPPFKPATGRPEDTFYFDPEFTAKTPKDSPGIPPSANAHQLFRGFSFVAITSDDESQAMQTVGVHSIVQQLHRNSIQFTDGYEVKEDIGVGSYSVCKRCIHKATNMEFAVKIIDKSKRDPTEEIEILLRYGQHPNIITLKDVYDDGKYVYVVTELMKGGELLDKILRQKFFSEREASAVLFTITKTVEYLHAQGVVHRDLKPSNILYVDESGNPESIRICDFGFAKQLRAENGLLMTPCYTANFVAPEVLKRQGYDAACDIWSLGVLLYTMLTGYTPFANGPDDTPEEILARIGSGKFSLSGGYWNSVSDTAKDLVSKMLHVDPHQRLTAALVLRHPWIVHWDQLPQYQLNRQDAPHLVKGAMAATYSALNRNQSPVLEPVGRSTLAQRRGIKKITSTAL

Worked examples, 4 compounds total:
CC(C)(C)OC(=O)Nc1nc(-c2ccncc2)sc1C#CCN1CCOCC1
> 1 µM
CC(C)(C)OC(=O)Nc1ncsc1C#CCN1C(=O)c2ccccc2C1=O
> 1 µM
Nc1ncsc1C#Cc1cccc(O)c1
1 to 10 µM
c1ccc(Cc2c[nH]c3ncsc23)cc1 [Compound A7, 6-benzyl-4H-pyrrolo[2,3-d]thiazole]
1 to 10 µM

Now look at this one.
Ask: Item: Nc1ncsc1C#Cc1cnc2[nH]ccc2c1 Test system: UniProtKB P51812 Read-out: IC50 Value: ?
Reply: 10 to 100 µM

###

Target sequence: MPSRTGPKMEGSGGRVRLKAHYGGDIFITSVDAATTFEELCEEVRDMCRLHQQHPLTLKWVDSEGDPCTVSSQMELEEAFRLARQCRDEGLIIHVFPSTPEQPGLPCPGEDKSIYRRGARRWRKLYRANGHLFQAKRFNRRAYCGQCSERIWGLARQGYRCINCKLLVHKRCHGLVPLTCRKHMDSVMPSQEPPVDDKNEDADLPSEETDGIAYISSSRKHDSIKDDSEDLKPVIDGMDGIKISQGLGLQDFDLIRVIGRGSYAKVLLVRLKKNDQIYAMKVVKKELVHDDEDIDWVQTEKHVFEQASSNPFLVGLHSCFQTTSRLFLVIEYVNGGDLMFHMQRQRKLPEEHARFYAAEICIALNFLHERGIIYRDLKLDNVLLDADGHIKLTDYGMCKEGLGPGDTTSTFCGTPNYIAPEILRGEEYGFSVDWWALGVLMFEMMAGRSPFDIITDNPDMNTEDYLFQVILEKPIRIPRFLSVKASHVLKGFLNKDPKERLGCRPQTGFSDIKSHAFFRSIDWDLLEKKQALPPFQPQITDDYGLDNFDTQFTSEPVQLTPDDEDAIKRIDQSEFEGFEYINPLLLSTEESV
measurement.type: IC50

Worked examples, 3 molecules total:
c1ccc(Cc2c[nH]c3ncsc23)cc1 [Compound A7, 6-benzyl-4H-pyrrolo[2,3-d]thiazole]
> 1 µM
CC(C)(C)OC(=O)Nc1nc(-c2ccncc2)sc1C#CCN1CCOCC1
10 to 100 µM
Nc1ncsc1C#Cc1cnc2[nH]ccc2c1
> 1 µM

Ask: Suppose we examine the molecule Nc1ncsc1C#Cc1cccc(O)c1 ; what IC50 value has been reported?
Reply: > 1 µM

Ask: Suppose we examine the molecule CC(C)(C)OC(=O)Nc1ncsc1C#CCN1C(=O)c2ccccc2C1=O ; what IC50 value has been reported?
Reply: 10 to 100 µM
